tested on: NCI-H23 lung; experiment: NCI tumour cell line growth inhibition, 48 h
measurement_kind: TGI (µM)
# number only, unit µM dropped from output

Previously resolved entries follow.
Cc1cc(Nc2ncc(Cl)c(Nc3ccccc3S(=O)(=O)C(C)C)n2)c(OC(C)C)cc1C1CCNCC1
3.07
C[C@]12CC[C@H]3[C@@H](CC=C4C[C@@H](O)CC[C@@]43C)[C@@H]1C/C(=C\c1cccc(OCCCn3ccnc3)c1)[C@@H]2O
30.1

Kindly consider the entry below.
Noted for CN(C)Cc1cc(C(=O)/C=C/c2c(Cl)cccc2Cl)cc(CN(C)C)c1O : its TGI reads 34.2

====

system: UACC-257 melanoma; assay: NCI tumour cell line growth inhibition, 48 h
*1 amine or outer side, *2 acyl side, *3 side chain or, on linkers, in order; H or OH if unused. Where a SMILES comes first, the peptide text is derived from it. CO = O=C([*:1])[*:2]
Known GI50 of a selection of molecules

Field: example entries. Status: answers known.
CC(C)C(NC(=O)C(CCCN=C(N)N)NC(=O)NC(Cc1ccccc1)C(=O)O)C(=O)NC(C=O)CCCN=C(N)N (stereo not drawn) ({Phe-CO}-Arg-Val-Arg-aldehyde; configuration not given here)
> 5 µM
CNC(=O)c1ccc(Nc2nc(OC3CCCC3)c3c(-c4ccc5nc(C)oc5c4)c[nH]c3n2)c(OC)c1
> 100 µM

Alright, here's another molecule for you.
The molecule CCSc1nc(=S)[nH]c2[nH]ncc12 showed GI50 equal to > 100 µM
